Sourced from ChEMBL document CHEMBL2016536

Test system: Kluyveromyces marxianus
MEASUREMENT_PROTOCOL: Antifungal activity against Candida kefyr by microbroth dilution method
Assay type: functional
MIC80: recorded values

{"MOLECULE": "N#Cc1cccc(Cn2cc(CC(O)(Cn3cncn3)c3ccc(F)cc3F)nn2)c1 (stereo not given)", "BOUND_SIGN": "<", "MIC80 / µg/mL": 0.125}
{"MOLECULE": "OC(Cc1cn(Cc2ccc(Br)cc2)nn1)(Cn1cncn1)c1ccc(F)cc1F (stereo not given)", "BOUND_SIGN": "=", "MIC80 / µg/mL": 0.0625}
{"MOLECULE": "O=[N+]([O-])c1ccc(Cn2cc(CC(O)(Cn3cncn3)c3ccc(F)cc3F)nn2)cc1 (stereo not given)", "BOUND_SIGN": "=", "MIC80 / µg/mL": 0.0625}
{"MOLECULE": "C[C@@H](c1ncncc1F)[C@](O)(Cn1cncn1)c1ccc(F)cc1F [VORICONAZOLE]", "BOUND_SIGN": "=", "MIC80 / µg/mL": 0.0625}
{"MOLECULE": "OC(Cc1cn(Cc2ccc(Cl)cc2)nn1)(Cn1cncn1)c1ccc(F)cc1F (stereo not given)", "BOUND_SIGN": "=", "MIC80 / µg/mL": 0.0625}
{"MOLECULE": "OC(Cc1cn(Cc2cccc(Cl)c2)nn1)(Cn1cncn1)c1ccc(F)cc1F (stereo not given)", "BOUND_SIGN": "=", "MIC80 / µg/mL": 0.0625}
{"MOLECULE": "OC(Cc1cn(Cc2ccccc2)nn1)(Cn1cncn1)c1ccc(F)cc1F (stereo not given)", "BOUND_SIGN": "<", "MIC80 / µg/mL": 0.125}
{"MOLECULE": "OC(Cc1cn(Cc2ccccc2Cl)nn1)(Cn1cncn1)c1ccc(F)cc1F (stereo not given)", "BOUND_SIGN": "=", "MIC80 / µg/mL": 0.125}
{"MOLECULE": "OC(Cc1cn(Cc2cccc(Br)c2)nn1)(Cn1cncn1)c1ccc(F)cc1F (stereo not given)", "BOUND_SIGN": "=", "MIC80 / µg/mL": 0.125}
{"MOLECULE": "N#Cc1ccccc1Cn1cc(CC(O)(Cn2cncn2)c2ccc(F)cc2F)nn1 (stereo not given)", "BOUND_SIGN": "<", "MIC80 / µg/mL": 0.125}
{"MOLECULE": "OC(Cc1cn(Cc2ccc(Cl)c(Cl)c2)nn1)(Cn1cncn1)c1ccc(F)cc1F (stereo not given)", "BOUND_SIGN": "=", "MIC80 / µg/mL": 0.25}
{"MOLECULE": "Cc1ccc(Cn2cc(CC(O)(Cn3cncn3)c3ccc(F)cc3F)nn2)cc1 (stereo not given)", "BOUND_SIGN": "=", "MIC80 / µg/mL": 0.0156}
{"MOLECULE": "CC(=O)N1CCN(c2ccc(OCC3COC(Cn4ccnc4)(c4ccc(Cl)cc4Cl)O3)cc2)CC1 (stereo not given) [KETOCONAZOLE]", "BOUND_SIGN": "=", "MIC80 / µg/mL": 0.0625}
{"MOLECULE": "OC(Cc1cn(Cc2ccccc2F)nn1)(Cn1cncn1)c1ccc(F)cc1F (stereo not given)", "BOUND_SIGN": "=", "MIC80 / µg/mL": 0.0625}
{"MOLECULE": "C[C@@H]1[C@H](O)[C@@H](C)/C=C/C=C/C=C/C=C/C=C/C=C/C=C/[C@H](O[C@@H]2O[C@H](C)[C@@H](O)[C@H](N)[C@@H]2O)C[C@@H]2O[C@](O)(C[C@@H](O)C[C@@H](O)[C@H](O)CC[C@@H](O)C[C@@H](O)CC(=O)O[C@H]1C)C[C@H](O)[C@H]2C(=O)O [AMPHOTERICIN B]", "BOUND_SIGN": "=", "MIC80 / µg/mL": 0.25}
{"MOLECULE": "OC(Cc1cn(Cc2cccc(F)c2)nn1)(Cn1cncn1)c1ccc(F)cc1F (stereo not given)", "BOUND_SIGN": "=", "MIC80 / µg/mL": 0.0625}
{"MOLECULE": "Cc1cccc(Cn2cc(CC(O)(Cn3cncn3)c3ccc(F)cc3F)nn2)c1 (stereo not given)", "BOUND_SIGN": "=", "MIC80 / µg/mL": 0.0156}
{"MOLECULE": "CC(C)(C)c1ccc(Cn2cc(CC(O)(Cn3cncn3)c3ccc(F)cc3F)nn2)cc1 (stereo not given)", "BOUND_SIGN": "=", "MIC80 / µg/mL": 0.0625}
{"MOLECULE": "O=[N+]([O-])c1cccc(Cn2cc(CC(O)(Cn3cncn3)c3ccc(F)cc3F)nn2)c1 (stereo not given)", "BOUND_SIGN": "=", "MIC80 / µg/mL": 0.0625}
{"MOLECULE": "OC(Cc1cn(Cc2ccc(F)cc2)nn1)(Cn1cncn1)c1ccc(F)cc1F (stereo not given)", "BOUND_SIGN": "=", "MIC80 / µg/mL": 0.0625}
